target: T1, recombinant human clusterin (human, UniProt P10909 23-449); test: SPR, rhCLU flowed over immobilized P3376, fit of the response against the clusterin concentration [inset]
T1 construct: also called rhCLU; rh-clusterin
T1 sequence (P10909 23-449 limits assumed): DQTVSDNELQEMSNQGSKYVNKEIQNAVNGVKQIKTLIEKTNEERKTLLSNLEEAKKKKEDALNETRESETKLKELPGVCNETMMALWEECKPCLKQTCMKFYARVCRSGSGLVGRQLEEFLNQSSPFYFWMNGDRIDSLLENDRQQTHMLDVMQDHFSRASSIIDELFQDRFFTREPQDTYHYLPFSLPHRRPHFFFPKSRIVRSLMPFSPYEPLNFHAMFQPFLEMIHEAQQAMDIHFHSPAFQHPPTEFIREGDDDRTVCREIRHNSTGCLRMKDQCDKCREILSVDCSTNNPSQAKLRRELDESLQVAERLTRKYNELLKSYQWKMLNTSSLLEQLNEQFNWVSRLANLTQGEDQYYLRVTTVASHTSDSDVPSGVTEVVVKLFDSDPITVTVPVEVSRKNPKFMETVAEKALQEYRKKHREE
property: Kd (nM)
Answers are plain numbers, in nM.

Sample SHALPLTWSTAASGSGC (In SPR it was immobilised through the C-terminal Cys (thioether); In STD-NMR it was free in solution) [P3376 synthetic peptide (SHALPLTWSTAA with C-terminal SGSGC extension)] ; Kd observed: 342
